Recorded melting point by entry

// solved cases for melting point follow
| compound | melting point |
| --- | --- |
| CN1CCc2c(sc3ncn(CCN4CCN(c5cc(C(F)(F)F)ccn5)CC4)c(=O)c23)C1 | 101 to 102 °C |
| CN1CCc2c(sc3ncn(CCN4CCN(c5ncccn5)CC4)c(=O)c23)C1 | 146 to 148 °C |
| COc1ccc(N2CCN(CCn3cnc4sc(C(=O)N(C)C)c(C)c4c3=O)CC2)c(OC)c1 | 170 to 171 °C |

Please find the next compound below.
Input: Entry Cc1ccc(C)c(N2CCN(CCn3cnc4sc(C(=O)N(C)C)c(C)c4c3=O)CC2)c1 has what melting point?
Output: 90 to 91 °C

* * *

Recorded melting point values for a group of compounds are listed next.

| chem-smiles | assay-value |
| --- | --- |
| CCOC(=O)N1Cc2sc3ncn(CCN4CCN(c5cccc6ccccc56)CC4)c(=O)c3c2C1 | 190 to 192 °C |
| CN1CCc2c(sc3ncn(CCCN4CCN(c5ncccn5)CC4)c(=O)c23)C1 | 161 to 163 °C |
| CCOC(=O)N1Cc2sc3ncn(CCN4CCN(c5cccc6c5CCC6)CC4)c(=O)c3c2C1 | 149 °C |

Here is the next item to consider.
Input: Report melting point for COc1ccccc1N1CCN(CCn2cnc3sc4c(c3c2=O)CCNC4)CC1 please.
Output: 168 to 170 °C

* * *

Structures can show the parent of a compound that is named as a salt.
observable: melting point

The examples below pair each entry with its known result.
| compound | melting point |
| --- | --- |
| CN1CCc2c(sc3ncn(CCN4CCN(c5cc(Cl)cc(Cl)c5)CC4)c(=O)c23)C1 | 97 to 100 °C |
| CN1CCc2c(sc3ncn(CCN4CCN(c5ncccn5)CC4)c(=N)c23)C1 (as salt: tartrate) | 112 to 114 °C (dec.) |

Please find the next compound below.
Input: Please report the recorded melting point for Cc1cccc(N2CCN(CCn3cnc4sc5c(c4c3=O)CCN(C)C5)CC2)n1 .
Output: 138 to 140 °C

* * *

Quick reference: melting point of the listed items.
Where a name gives a salt, the structure may show the parent alone.

Input: Item under review: Cc1c(C(=O)N(C)C)sc2ncn(CCN3CCN(c4cccc5ccccc45)CC3)c(=O)c12 . Reported melting point?
Output: 190 to 191 °C

Input: Suppose we examine the compound Cc1ccnc(N2CCN(CCn3cnc4sc5c(c4c3=O)CCN(C)C5)CC2)n1 ; what melting point value has been reported?
Output: 136 to 138 °C

Input: Look at this compound and give its reported melting point. COc1ccccc1N1CCN(CCn2c(C)nc3sc4c(c3c2=O)CCN(C)C4)CC1
Output: 176 to 178 °C

Input: Need melting point, item Cc1c(C(=O)N(C)C)sc2ncn(CCN3CCN(c4ncnc5ccccc45)CC3)c(=O)c12 (as salt: hydrochloride)
Output: 295 to 300 °C

Attribution: patent US6387912B1
